run description: Phase 1 SRD/multiple-rising dose (MRD, Part 2) plasma PK in healthy subjects
Assay type: in vivo, human
measurement conditions: both sexes, human, plasma, oral, 9 mg, 9 mg QD cohort, Study Day 1; mean; read-out: AUC24
measured endpoint: AUC (ng·h/mL)

[
  {
    "smiles repr": "CC1=CN2CCS(=O)(=O)N=C2C(c2ccc(OC3CCCCC3)cc2)=N1",
    "observed": 1410
  }
]

---

run description: Phase 1 SRD/multiple-rising dose (MRD, Part 2) plasma PK in healthy subjects
Assay type: in vivo, human
measurement conditions: both sexes, human, plasma, oral, 6 mg, 6 mg QD cohort, Study Day 1; mean; read-out: Cmax
measured endpoint: Cmax

[
  {
    "compound": "CC1=CN2CCS(=O)(=O)N=C2C(c2ccc(OC3CCCCC3)cc2)=N1 [COMPOUND A]",
    "observed": "42 ng/mL"
  }
]

---

run description: Phase 1 SRD/multiple-rising dose (MRD, Part 2) plasma PK in healthy subjects
Format: in vivo, human
measurement conditions: both sexes, human, plasma, oral, 0.3 mg, 0.3 mg QD, Study Day 18; mean; read-out: AUCτ
measured endpoint: AUC (ng·h/mL)

[
  {
    "compound": "CC1=CN2CCS(=O)(=O)N=C2C(c2ccc(OC3CCCCC3)cc2)=N1 [COMPOUND A]",
    "observed": 151
  }
]

---

run description: Phase 1 single-rising dose (SRD, Part 1) plasma PK in healthy subjects
Assay type: in vivo, human
measurement conditions: both sexes, human, plasma, po, 3 mg, single oral 3 mg; median, N = 6; read-out: tmax

[
  {
    "molecule": "CC1=CN2CCS(=O)(=O)N=C2C(c2ccc(OC3CCCCC3)cc2)=N1 [COMPOUND A]",
    "Tmax / h": 1.75
  }
]

---

run description: Phase 1 SRD/multiple-rising dose (MRD, Part 2) plasma PK in healthy subjects
Type: in vivo, human
measurement conditions: both sexes, human, plasma, oral, 0.3 mg, 0.3 mg QD, Study Day 18; median; read-out: tmax

[
  {
    "compound": "CC1=CN2CCS(=O)(=O)N=C2C(c2ccc(OC3CCCCC3)cc2)=N1 [COMPOUND A]",
    "Tmax / h": 2.5
  }
]

---

run description: Phase 1 SRD/multiple-rising dose (MRD, Part 2) plasma PK in healthy subjects
Assay type: in vivo, human
measurement conditions: both sexes, human, plasma, po, 9 mg, oral QD 0.3, 1, 3, 6, 9 mg; range over the dose range; read-out: median tmax
Method: The study was designed to assess the safety, tolerability, PK, and PD of COMPOUND A. A total of 88 subjects were enrolled in 6 SRD and 5 SRD/MRD cohorts (n=8 per cohort). The study was composed of 2 parts. […] Referring now to FIG. 3, mean plasma concentration-time profiles (linear and semilog scales) of COMPOUND A were determined on Day 18 following oral administration of COMPOUND A QD for 13 days.

[
  {
    "smiles repr": "CC1=CN2CCS(=O)(=O)N=C2C(c2ccc(OC3CCCCC3)cc2)=N1",
    "Tmax": "2.5 to 4 h"
  }
]

---

run description: Phase 1 single-rising dose (SRD, Part 1) plasma PK in healthy subjects
Assay type: in vivo, human
measurement conditions: both sexes, human, plasma; single oral 0.3 mg; mean, N = 6; read-out: AUC∞

[
  {
    "molecule": "CC1=CN2CCS(=O)(=O)N=C2C(c2ccc(OC3CCCCC3)cc2)=N1 [COMPOUND A]",
    "AUC(0-inf) (ng·h/mL)": 148
  }
]
